Entries and their pIC50 values follow.
- tgt: KRASG12D (Homo sapiens, UniProt P01116, G12D)
- Sequence (P01116 1-188 isoform P01116-2 G12D): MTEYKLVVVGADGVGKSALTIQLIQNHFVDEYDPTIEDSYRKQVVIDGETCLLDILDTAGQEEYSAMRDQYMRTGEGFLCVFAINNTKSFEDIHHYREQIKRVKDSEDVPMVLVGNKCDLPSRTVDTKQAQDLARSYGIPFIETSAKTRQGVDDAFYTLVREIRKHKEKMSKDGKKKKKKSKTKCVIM
- experiment.notes: Bio-Biochem-PPI-HTRF Ras-SOS1 interaction assay (KRAS G12D)
- measurement.setup: 5 nM
pIC50: −log10 of the molar value.

Here's what some known entries look like.
N#Cc1c(N)sc2c(F)ccc(-c3c(Cl)cc4c(N5CCCCC6(CN(C(=O)N7CCC7)C6)C5)nc(OC[C@@]56CCCN5C[C@H](F)C6)nc4c3F)c12 | > 5.30
COc1cc(C(=O)N2CC3(CCCCN(c4nc(OC[C@@]56CCCN5C[C@H](F)C6)nc5c(F)c(-c6ccc(F)c7sc(N)c(C#N)c67)c(Cl)cc45)C3)C2)n(C)n1 | > 5.30

Below: the item to evaluate.
*Q* Determine from records and report pIC50 for N#Cc1c(N)sc2c(F)ccc(-c3c(Cl)cc4c(N5CCC(CO)CC6(CN(C(=O)[C@@H]7CC7(F)F)C6)C5)nc(OC[C@@]56CCCN5C[C@H](F)C6)nc4c3F)c12 (stereo partly drawn)
*A* > 5.30
